Tested on: SK-OV-3 ovarian
method summary: NCI-60 one-dose screen, 48 h (100 = growth as untreated, 0 = no growth, -100 = all killed)
test parameters: 10 µM unless noted
This is part of a sample that, as a whole, favours compounds with a hit. Of some 83,000 tested, about 20% had one in any assay.
Please use yes for growth under 70% and no for everything else, ties included.

Here are 8 molecules together with their reported answers.
- molecule: "O=C(O)c1cn(C2CC2)c2cc(N3CCN(C(=O)CSc4nnc(-c5ccc(Cl)cc5)n4-c4ccccc4)CC3)c(F)cc2c1=O"
  assigned label: "no"
- molecule: "O=C1C(=O)c2c(nc3ccc(Br)cn23)-c2ccccc21"
  assigned label: "yes"
- molecule: "CCCCC(=O)Nc1c(C(=O)Nc2ccccc2)sc2nc3c(cc12)C(OC(=O)CCCC)CCC3 (stereo unspecified)"
  assigned label: "no"
- molecule: "COc1ccc(-c2nnc(N3CCN(C(=O)CN4CCN(c5ccc(OC)cc5)CC4)CC3)nc2-c2ccc(OC)cc2)cc1"
  assigned label: "no"
- molecule: "COc1ccc(C2C(c3ccccc3)C(=O)N2c2cc(OC)c(OC)c(OC)c2)cc1I (stereo unspecified)"
  assigned label: "yes"
- molecule: "COc1ccc2nc3c(n2c1)C(=O)C(=O)c1ccccc1-3"
  assigned label: "yes"
- molecule: "C=CCn1c(CN2CCN(c3cc4c(cc3F)c(=O)c(C(=O)O)cn4C3CC3)CC2)n[nH]c1=S"
  assigned label: "no"
- molecule: "Cc1ccccc1NC(=O)c1sc2nc(C)c(C(C)O)cc2c1N (stereo unspecified)"
  assigned label: "yes"

Query: Is growth of Oc1ccc(CNNc2ccnc3c(O)cccc23)c2cccnc12 strictly below 70%?
Result: yes

Query: Consider the molecule OCCNc1nc(NCCO)nc(Nc2ccc(C3=NN(c4cc(Cl)cc(Cl)c4)C(c4ccc(Cl)cc4)C3)cc2)n1 (stereo unspecified) . Is its growth strictly less than 70%?
Result: no

Query: # strict comparison: is reported growth < 70%? input = CC(=O)OC[C@]12CC[C@@H](c3cn(Cc4ccc(Cn5cc([C@@H]6CC[C@]7(COC(C)=O)CC[C@]8(C)[C@H](CC[C@@H]9[C@@]%10(C)CC[C@H](OC(C)=O)C(C)(C)[C@@H]%10CC[C@]98C)[C@@H]67)nn5)cc4)nn3)[C@@H]1[C@H]1CC[C@@H]3[C@@]4(C)CC[C@H](OC(C)=O)C(C)(C)[C@@H]4CC[C@@]3(C)[C@]1(C)CC2
Result: no

Query: Given CC(/C=C/c1ccccc1)=N/NC(=O)c1ccncc1 , is recorded growth strictly lower than 70%?
Result: no

Query: Report whether reported growth is lower than 70% (strictly) for O=[N+]([O-])c1ccc(N=Nc2c(O)c(N=Nc3cc([N+](=O)[O-])cc([N+](=O)[O-])c3O)cc(N=Nc3cc(S(=O)(=O)O)cc4cc(S(=O)(=O)O)cc(O)c34)c2O)cc1
Result: no

Query: For this molecule, is growth lower than 70%? O=C(NCc1ccccc1)c1ccc2c(c1)NC(=O)[C@@H]1CCCN21
Result: no

Query: Dear colleague, could you confirm whether growth of CCOC(=O)c1c(-c2ccc(O)cc2)c(C#N)c2c(C#N)c(N)nn2c1N falls below 70%? Thanks.
Result: no
